All values here come from the supplement of paper PMC5998384.

system: HeLa Kyoto; assay: melting temperature (median over replicates), in situ; higher = more thermally stable; settings: cell cycle stage: G1/S;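 note: HeLa Kyoto cells synchronized by double thymidine or nocodazole block, proteins quantified by TMT10plex mass spectrometry, three independent biological replicates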
Everything with melting temperature lower than 50 °C is -1; everything else, including exactly 50 °C, is 1.

Reference set, count: 2
>>> discrete_label("MTMDGDSSTTDASQLGISADYIGGSHYVIQPHDDTEDSMNDHEDTNGSKESFREQDIYLPIANVARIMKNAIPQTGKIAKDAKECVQECVSEFISFITSEASERCHQEKRKTINGEDILFAMSTLGFDSYVEPLKLYLQKFREAMKGEKGIGGAVTATDGLSEELTEEAFTNQLPAGLITTDGQQQNVMVYTTSYQQISGVQQIQFS [NFYB]")
1
>>> discrete_label("MPVAVGPYGQSQPSCFDRVKMGFVMGCAVGMAAGALFGTFSCLRIGMRGRELMGGIGKTMMQSGGTFGTFMAIGMGIRC [ROMO1]")
1

Query: Is melting temperature at least 50 °C? Consider MMRFMLLFSRQGKLRLQKWYLATSDKERKKMVRELMQVVLARKPKMCSFLEWRDLKVVYKRYASLYFCCAIEGQDNELITLELIHRYVELLDKYFGSVCELDIIFNFEKAYFILDEFLMGGDVQDTSKKSVLKAIEQADLLQEEDESPRSVLEEMGLA [AP1S1]
Response: 1

Query: // next record MAAACGPGAAGYCLLLGLHLFLLTAGPALGWNDPDRMLLRDVKALTLHYDRYTTSRRLDPIPQLKCVGGTAGCDSYTPKVIQCQNKGWDGYDVQWECKTDLDIAYKFGKTVVSCEGYESSEDQYVLRGSCGLEYNLDYTELGLQKLKESGKQHGFASFSDYYYKWSSADSCNMSGLITIVVLLGIAFVVYKLFLSDGQYSPPPYSEYPPFSHRYQRFTNSAGPPPPGFKSEFTGPQNTGHGATSGFGSAFTGQQGYENSGPGFWTGLGTGGILGYLFGSNRAATPFSDSWYYPSYPPSYPGTWNRAYSPLHGGSGSYSVCSNSDTKTRTASGYGGTRRR [SARAF]
Response: 1

Query: Then this sequence: MGTDSRAAKALLARARTLHLQTGNLLNWGRLRKKCPSTHSEELHDCIQKTLNEWSSQINPDLVREFPDVLECTVSHAVEKINPDEREEMKVSAKLFIVESNSSSSTRSAVDMACSVLGVAQLDSVIIASPPIEDGVNLSLEHLQPYWEELENLVQSKKIVAIGTSDLDKTQLEQLYQWAQVKPNSNQVNLASCCVMPPDLTAFAKQFDIQLLTHNDPKELLSEASFQEALQESIPDIQAHEWVPLWLLRYSVIVKSRGIIKSKGYILQAKRRGS [GCLM]
Response: -1
